system.under.test: SARS-CoV-2 NSP3 Mac1 (Severe acute respiratory syndrome coronavirus 2)
protocol.text: biochemical
Type: binding
study.conditions: read-out: Ki***
Readings of pKi for the listed molecules
Lab note: report pKi as minus log10 of the concentration in molar units, number only.

Here's what some known entries look like.
{"molecule": "Cn1ncc2ncnc(NS(=O)(=O)Cc3ccc(CC#N)cc3)c21", "pKi": 4.43}
{"molecule": "O=C(NCc1c(C(=O)O)[nH]c2ccccc12)c1ccc2[nH]cnc2c1", "pKi": 4.67}
{"molecule": "O=C(NC1c2cccc(O)c2CC1C(=O)O)c1ccc2[nH]cnc2c1 (stereo not drawn)", "pKi": 5.33}

Request: Consider the molecule CCC(=O)Nc1nc(C)c(S(=O)(=O)Nc2cccc(C#N)c2)s1 and give its measured pKi.
Response: 3.91

Request: Field entry: Nc1ccc(C(=O)OC2c3ccccc3CC2C(=O)O)c(O)c1 (stereo not drawn)
Response: 3.90

Request: Field entry: O=C(NC1C=CC(C(=O)O)C1)c1ncnc2sccc12 (stereo not drawn)
Response: 4.22

Request: Field entry: O=C(O)C1CN(c2ncnc3[nH]c4cc(F)ccc4c23)CC12CCC2 (stereo not drawn)
Response: 4.93

Request: Field entry: O=C(O)CC1CN(c2ncnc3[nH]c4cc(F)ccc4c23)CC2(CCC2)O1 (stereo not drawn)
Response: 4.77

Request: Field entry: O=C(NCc1c(C(=O)O)[nH]c2ccccc12)c1ccc2[nH]c(O)nc2c1
Response: 4.86

###

Readings of log10 IC50 for the listed compounds
system.under.test: SARS-CoV-2 NSP3 Mac1 (Severe acute respiratory syndrome coronavirus 2, UniProt P0DTD1)
protocol.text: biochemical
Type: binding
study.conditions: HTRF; several values in a cell are separate determinations; read-out: IC50
Base-10 log of IC50, unit µM.

Here's what some known entries look like.
{"compound": "CNC(=O)Nc1ccc(C(=O)NC2c3ccccc3CC2C(=O)O)cc1 (stereo not shown)", "experimental.endpoint": "log10 IC50", "observed.result": 1.01}
{"compound": "Cc1[nH]c2ncnc(N3CCOC(CC(F)(F)F)C3)c2c1C (stereo not shown)", "experimental.endpoint": "log10 IC50", "observed.result": 2.14}
{"compound": "CCc1c[nH]c2ncnc(N3CCCC(Cc4nc(C)no4)C3)c12 (stereo not shown)", "experimental.endpoint": "log10 IC50", "observed.result": 2.17}
{"compound": "OC[C@H]1CCCN(c2ncnc3[nH]c4cc(F)ccc4c23)C1", "experimental.endpoint": "log10 IC50", "observed.result": 1.96}
{"compound": "CCc1c[nH]c2ncnc(N3CCC[C@H](C(N)=O)C3)c12", "experimental.endpoint": "log10 IC50", "observed.result": 2.31}
{"compound": "CCc1c[nH]c2ncnc(N3CCCC(S(C)(=O)=O)C3)c12 (stereo not shown)", "experimental.endpoint": "log10 IC50", "observed.result": 2.10}
{"compound": "O=c1[nH]nc(C2CCCN(c3ncnc4[nH]ccc34)C2)o1 (stereo not shown)", "experimental.endpoint": "log10 IC50", "observed.result": 2.45}
{"compound": "C[C@@H]1CN(c2ncnc3[nH]c4ccccc4c23)C[C@@H](CO)O1", "experimental.endpoint": "log10 IC50", "observed.result": 2.62}

Request: Checklist item: log10 IC50 tested on SARS-CoV-2 NSP3 Mac1 (Severe acute respiratory syndrome coronavirus 2, UniProt P0DTD1), entry O=S1(=O)CCC2(CCCN(c3ncnc4[nH]ccc34)C2)C1 (stereo not shown) , value?
Response: 2.23

Request: Field entry: O=C(O)CC1CN(c2ncnc3[nH]ccc23)CCO1 (stereo not shown)
Response: 2.36

###

system.under.test: UniProtKB P0DTD1
Type: binding
study.conditions: ligand modeled in the crystal structure; crystal soak 100 mM; PanDDA run dmso_34
experimental.endpoint: Modeled?

Here's what some known entries look like.
{"compound": "CCc1c[nH]c2ncnc(N3CCCC(S(C)(=O)=O)C3)c12 (centres unmarked)", "observed.result": "TRUE"}
{"compound": "O=C(c1ncnc2[nH]ccc12)N1CC=CC12CCCCC2", "observed.result": "TRUE"}
{"compound": "c1csc(CC2CCN(c3ncnc4[nH]ccc34)C2)n1 (centres unmarked)", "observed.result": "TRUE"}
{"compound": "Nc1ncnc2c1ncn2Cc1cc(-c2ccco2)on1", "observed.result": "TRUE"}
{"compound": "CC(CSc1nnc2[nH]cnn12)c1ccccc1 (centres unmarked)", "observed.result": "TRUE"}
{"compound": "Nc1ncnc2c1ncn2Cc1cccc(C(F)(F)F)c1", "observed.result": "TRUE"}
{"compound": "O=c1[nH]nc(C2CCCN(c3ncnc4[nH]ccc34)C2)o1 (centres unmarked)", "observed.result": "TRUE"}
{"compound": "O=C1CCCN1CCSc1ncnc2[nH]cnc12", "observed.result": "TRUE"}

Request: Consider the compound CCc1c[nH]c2ncnc(N3CCCC(Cc4nc(C)no4)C3)c12 (centres unmarked) and give its measured Modeled?.
Response: TRUE

Request: Field entry: OCc1cn(C2CCCN(c3ncnc4[nH]ccc34)C2)nn1 (centres unmarked)
Response: TRUE

Request: Field entry: Cc1oc(=O)oc1CSc1ncnc2[nH]cnc12
Response: TRUE

Request: Field entry: Nc1ncnc2c1ncn2Cc1ccc(Cl)cn1
Response: TRUE

Request: Field entry: N#Cc1ccc(OCCn2cnc3c(N)ncnc32)cc1
Response: TRUE

Request: Field entry: O=S1(=O)CCC2(CCCN(c3ncnc4[nH]ccc34)C2)C1 (centres unmarked)
Response: TRUE

###

system.under.test: SARS-CoV-2 NSP3 Mac1 (Severe acute respiratory syndrome coronavirus 2, UniProt P0DTD1)
Type: binding
Set-up: contains a conserved macrodomain enzyme (Mac1)
study.conditions: maximal thermal upshift vs DMSO control
experimental.endpoint: DSF max dTma (°C)
// units = °C; emit number, no label

Here's what some known entries look like.
{"molecule": "c1csc(CC2CCN(c3ncnc4[nH]ccc34)C2)n1 (centres unmarked)", "DSF max dTma, °C": 0.15}
{"molecule": "Cc1oc(=O)oc1CSc1ncnc2[nH]cnc12", "DSF max dTma, °C": 0.49}

Request: Consider the molecule Nc1nc(N)c2ncn(Cc3csc(Cl)n3)c2n1 and give its measured DSF max dTma.
Response: 1.1

Request: Field entry: CN(c1cc(NC2CC2)ncn1)C1CCCN(c2cccnn2)C1 (centres unmarked)
Response: 0.44

Request: Field entry: Nc1ncnc2c1ncn2Cc1cc(-c2ccco2)on1
Response: 0.63

###

system.under.test: SARS-CoV-2 NSP3 Mac1 (Severe acute respiratory syndrome coronavirus 2)
Type: binding
Set-up: contains a conserved macrodomain enzyme (Mac1)
study.conditions: DSF dose responsiveness, 1 µM nsp3 mac1; adj p given
Readings of Spearman est (compound concentration vs apparent Tm) for the listed compounds
Response field accepts a number only; no unit should be typed.

Here's what some known entries look like.
{"compound": "CN(c1cc(NC2CC2)ncn1)C1CCCN(c2cccnn2)C1 (centres unmarked)", "observed.result": "−0.41"}
{"compound": "Cc1ccc(-c2nc(Cn3cnc4c(N)nc(N)nc43)cs2)o1", "observed.result": 0.74}
{"compound": "CNc1ccc(C(=O)N2CC(C(=O)O)CC23CCOCC3)cn1 (centres unmarked)", "observed.result": 0.29}
{"compound": "Cc1noc(CC2CCCN(c3ncnc4[nH]c5cc(F)ccc5c34)C2)n1 (centres unmarked)", "observed.result": 0.01}

Below: the item to evaluate.
Request: Consider the compound Cc1cc(S(=O)(=O)Nc2cnc3[nH]ccc3c2)n(C2CCCC2)n1 and give its measured Spearman est (compound concentration vs apparent Tm).
Response: −0.51

###

system.under.test: UniProtKB P0DTD1
Assay type: binding
study.conditions: PanDDA event map; crystal soak, Compound_concentration 100 mM, Echo_dispense_volume 40 nl
experimental.endpoint: 1-BDC
Response field accepts a number only; no unit should be typed.

Here's what some known entries look like.
{"molecule": "O=C(NC1c2cccc(O)c2CC1C(=O)O)c1ccc2[nH]cnc2c1 (stereo not drawn)", "1-BDC": 0.21}
{"molecule": "COC(=O)CC1CN(c2ncnc3[nH]c4cc(F)ccc4c23)CCO1 (stereo not drawn)", "1-BDC": 0.08}
{"molecule": "O=C(NCc1c(C(=O)O)[nH]c2ccccc12)c1ccc2[nH]cnc2c1", "1-BDC": 0.24}

Request: Consider the molecule O=C(O)C1(F)CN(c2ncnc3[nH]c4cc(F)ccc4c23)CC1C1CC1 (stereo not drawn) and give its measured 1-BDC.
Response: 0.12

Request: Field entry: O=C(NC1c2cccc(O)c2CC1C(=O)O)c1ccc2[nH]c(CO)nc2c1 (stereo not drawn)
Response: 0.29

Request: Field entry: O=C(O)C(F)(F)F.O=C(O)C1CN(c2ncnc3[nH]c4ccccc4c23)CC12CCC2 (stereo not drawn)
Response: 0.14

Request: Field entry: CC(=O)Nc1nc(C)c(S(=O)(=O)Nc2ccc(C)c(C#N)c2)s1
Response: 0.23

Request: Field entry: COc1cncc(C(=O)NCCNC(=O)c2ncccc2O)c1
Response: 0.14

Request: Field entry: Nc1nc(N2CC3(CCC3)C(F)(C(=O)O)C2)c2c(n1)[nH]c1cc(F)ccc12 (stereo not drawn)
Response: 0.15
